experiment: Acute toxicity LD50 oral vs i.p. and B/P ratio, rat; format: in vivo; details: in vivo, ip; Sprague-Dawley I.O.P.S. rat, i.p.; read-out: LD50 i.p. (P)
endpoint-label: LD50

query-smiles	LD50
Cc1ncc(CO)c(C=NCCS(=O)(=O)O)c1O	2200 µmol/kg

Here is another molecule to look at.
stdin: Retrieve LD50 measured for Cc1ncc(CO)c(C=NCCCS(=O)(=O)O)c1O and print it.
stdout: 2400 µmol/kg

====

Give measured selectivity ratio for each item. Keep answers brief.
Assay: in vivo
Conditions: mouse, in vivo, B/P ratio (oral LD50 / i.p. LD50), Swiss I.O.P.S. mouse
Experimental: The study is carried out with Swiss I.O.P.S. mice, in lots of 20 animals of both sexes.
Numbers only.

query-smiles	selectivity ratio
Cc1ncc(CO)c(CNCCCS(=O)(=O)[O-])c1O.[K+]	1.19

We next turn to a different compound, shown below.
stdin: Specify selectivity ratio for Cc1ncc(CO)c(CNCCS(=O)(=O)[O-])c1O.[K+] and stop.
stdout: 1.2

====

experiment: Acute toxicity LD50 oral vs i.p. and B/P ratio, sodium salts (species not restated); assay type: in vivo; conditions: in vivo
endpoint-label: selectivity ratio
Numbers only.

query-smiles	selectivity ratio
Cc1ncc(CO)c(C=NCCS(=O)(=O)O)c1O	2.33

# input for lookup
stdin: Could you please provide reported selectivity ratio for Cc1ncc(CO)c(C=NCCCS(=O)(=O)O)c1O ? Thanks!
stdout: 1.52

====

assay: Solubility; format: physicochemical

query-smiles	solubility in acetone
Cc1ncc(CO)c(CNCCS(=O)(=O)[O-])c1O.[Li+]	Insoluble
Cc1ncc(CO)c(CNCCS(=O)(=O)[O-])c1O.[K+]	Insoluble
Cc1ncc(CO)c(CNCCCS(=O)(=O)[O-])c1O.[K+]	Insoluble

====

Assay: in vivo
Details: mouse, in vivo, ip
Method: The study is carried out with Swiss I.O.P.S. mice, in lots of 20 animals of both sexes.
endpoint-label: LD50 (µmol/kg)
Answers are plain numbers, in µmol/kg.

compound	LD50, µmol/kg
Cc1ncc(CO)c(C=NCCS(=O)(=O)O)c1O [Example 13]	2800

stdin: Please supply the value of reported LD50 for the item Cc1ncc(CO)c(C=NCCCS(=O)(=O)O)c1O [Example 14]
stdout: 3300

====

experiment: Acute toxicity LD50 oral vs i.p. and B/P ratio, sodium salts (species not restated); format: in vivo; conditions: in vivo, ip, read-out: LD50 i.p. (P)
endpoint-label: LD50
Could you give the number and then its unit, please?

// solved cases for LD50 follow
query-smiles	LD50
Cc1ncc(CO)c(CNCCS(=O)(=O)[O-])c1O.[Na+]	20100 µmol/kg
Cc1ncc(CO)c(CNCCCS(=O)(=O)[O-])c1O.[Na+]	13000 µmol/kg
Cc1ncc(CO)c(C=NCCS(=O)(=O)O)c1O	3000 µmol/kg

stdin: Consider the compound Cc1ncc(CO)c(C=NCCCS(=O)(=O)O)c1O and give its recorded LD50.
stdout: 4400 µmol/kg

====

test: in vivo; details: mouse, in vivo, ip, LD50 i.p. (P), Swiss I.O.P.S. mouse
endpoint-label: LD50 (µmol/kg)
One number for each entry, in µmol/kg.

molecule	reported-result
Cc1ncc(CO)c(CNCCCS(=O)(=O)[O-])c1O.[K+]	14200
Cc1ncc(CO)c(C=NCCCS(=O)(=O)O)c1O [Example 12]	2400
Cc1ncc(CO)c(CNCCS(=O)(=O)[O-])c1O.[K+]	13000

stdin: // Input: Cc1ncc(CO)c(C=NCCS(=O)(=O)O)c1O [Example 11] . Output its LD50 only.
stdout: 2600

These data points were gathered from patent US4563470A.
